# Test summary: growth inhibitors of H69AR lung tumor, primary screen, human, duplicate replicates (AID 580);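 further: 100% = mean luminescence of untreated wells and 0% = no signal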
# Experimental context: H69AR lung tumor cells viability, ATP luminescence, 72 h; at 10 µM
Activity calls are given as the source filed them.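 How the source made its calls: active means viability at or under a set limit in both replicates, limit being median viability minus 3 SD (cut at about 48% in these data, passing the limit was not always enough); inconclusive means at or under the limit in just one replicate; inactive means at or above the limit in both replicates.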
Use one of these outcomes when replying: class 1 (active), class 0 (inactive)

Returns: the outcome recorded for CC1=C(C(=O)OC(C)C)C(C2CC=CCC2)NC(=O)N1 (stereo not drawn) in this assay.
class 0

Returns: the outcome recorded for `CC(C)CCNC(=O)NC(=O)CSc1nnc(-c2ccccc2Br)o1` in this assay.
class 0

Returns: the outcome recorded for `CCOC(=O)C1CCN(C(=O)COc2ccc(S(=O)(=O)NC(C)C)cc2Cl)CC1` in this assay.
class 0

Returns: the outcome recorded for `COc1cc(C(=O)OCc2cc3ccccc3[nH]c2=O)cc(OC)c1OC` in this assay.
class 0

Returns: the outcome recorded for `C[C@]12CC[C@@H]3c4ccc(O)cc4CC[C@H]3[C@@H]1CCC2=O` in this assay.
class 0

Returns: the outcome recorded for O=C(NCC(=O)N(Cc1cccs1)C(C(=O)NC1CCCC1)c1ccncc1)c1ccco1 (stereo not drawn) in this assay.
class 0

Returns: the outcome recorded for `Cc1cc(C(=O)Nc2cccc(O)c2)c(C)o1` in this assay.
class 0

Returns: the outcome recorded for `O=C(CN1CCOCC1)Nc1cccc(C(=O)Nc2cccc(C(F)(F)F)c2)c1` in this assay.
class 0

Returns: the outcome recorded for `Cc1nc2cc(C(=O)O)ccc2n1-c1ccc(F)cc1F` in this assay.
class 0

Returns: the outcome recorded for `Cc1ccc2[nH]c3c(=O)n(CCCN4CCN(C)CC4)cnc3c2c1` in this assay.
class 0

Returns: the outcome recorded for COCCc1ccc(OCC(O)CNC(C)C)cc1 (stereo not drawn) in this assay.
class 0

Returns: the outcome recorded for `CC(C)N(Cc1nc(-c2ccc(Cl)cc2)no1)C(=O)CN(C)S(=O)(=O)c1ccc(Cl)cc1` in this assay.
class 0

Returns: the outcome recorded for `COCC(=O)n1nc(NCc2ccc(OC)cc2)nc1NCc1ccc(OC)cc1` in this assay.
class 0

Returns: the outcome recorded for `O=C(c1ccc(S(=O)(=O)N2CCC(c3nc4ccccc4s3)CC2)cc1)N1CCOCC1` in this assay.
class 0

Returns: the outcome recorded for `Cc1ccc(S(=O)(=O)N2CCN(c3nc(C(C)C)c4c(c3C#N)CC(C)(C)OC4)CC2)cc1` in this assay.
class 0

Returns: the outcome recorded for `CCCCNc1cc(C(=O)O)cc(S(N)(=O)=O)c1Oc1ccccc1` in this assay.
class 0

Returns: the outcome recorded for `C(=N/n1c2ccccc2c2ccccc21)/c1ccco1` in this assay.
class 0

Returns: the outcome recorded for `CCOC(=O)c1cccc(NC(=O)CCn2nnc3ccccc32)c1` in this assay.
class 0

Returns: the outcome recorded for Cc1ccc2nc3c(cc2c1)CN(Cc1ccco1)C(=NCC1CCCO1)S3 (stereo not drawn) in this assay.
class 1

Returns: the outcome recorded for `COc1ccccc1OCCOCCn1cnc2ccccc2c1=O` in this assay.
class 0

Returns: the outcome recorded for `CC(=O)SCC(=O)N=c1sc2cc(F)ccc2n1C` in this assay.
class 0

Returns: the outcome recorded for `CCOC(=O)c1c2n(c3ccc(O)cc13)CCCCC2` in this assay.
class 0

Returns: the outcome recorded for `O=C(Nc1ncnc2sc3c(c12)CCC3)c1ccco1` in this assay.
class 0
